Test system: B6C3F1 mice, intracerebral ependymoblastoma, median survival T/C
Test: NCI In Vivo Anticancer Drug Screen. Data for tumor model Ependymoblastoma (intracerebral) in B6C3F1 mice
Conditions: endpoint: median survival time; dose: 4.0 mg/kg/injection; schedule: Q01DX005 (ip); vehicle: Klucel (hydroxypropylcellulose) (HPC); higher = longer survival
Toxic doses and inconclusive results are not listed.
assay metric: T/C

Here's what some known entries look like.
O=C(O)CCCc1ccc(N(CCCl)CCCl)cc1 = 105 % of control
COc1cc(NS(C)(=O)=O)ccc1Nc1c2ccccc2nc2ccccc12 = 103 % of control
OC(CBr)C(O)C(O)C(O)CBr (stereo unspecified) = 106 % of control
COc1ccc2c(c1O)-c1cccc3c1[C@@H](C2)N(CCCl)CC3 = 98 % of control
O=C1NC2(CCCCC2)C(=O)N1CCN(CCCl)CCCl = 117 % of control

Consider the record given below.
Request the reported T/C associated with O=NN(CCCl)C(=O)NC1CCC(=O)NC1=O (stereo unspecified)
207 % of control
